Data provenance is the supplement of paper PMC9170038.

- Test system: MS2 coat protein
- assay-comment: apparent KD of MS2 coat protein; designed switch direction (-1 OFF switch, 1 ON switch): 1; higher = weaker reporter binding
- cond: input ligand: FMN 200 uM
Outcome: true for apparent KD of MS2 coat protein of at least 60 nM; false for anything lower.

{"columns": ["residue-string", "category-label"],
 "data": [
  ["UGUUUGUUGUGAGGAUAUACGUACACCCUACAUGAGGAUCACCCAUGUUGUUCCCUUGAUUGUUGGUAGAAGGCACUUGGUUAU [JR_SSNG2_Sub049] (Eterna round: R96, puzzle: Same State NG 2)", "true"],
  ["UGAACCGUCACAGGAUAUCAUGCGAAAAUUGCGUGAGAAGGGUGGAUGUUGUGCUCAAAGUUCUACAUGAGGAUCACCCAUGUU [SameState NG1 #44] (Eterna round: R96, puzzle: Same State NG 1)", "true"],
  ["UAUCCAUAGAUAGGAUAUUAGAGAACAUGAGGAUCACCCAUGUUUGGCUUGGUUUUAAGCUAAUCUAAGAAGGAUCUUGAUGAA [SameState NG2 #9] (Eterna round: R96, puzzle: Same State NG 2)", "false"],
  ["GCUGGAAACUACAUGAGGAUCACCCAUGUUCCGGAAACGGCACAGGAUAUCUGUCCGAAAAGGUCAGAGAAGGGUGAAACCAGC [Fiskers NG3ss - 84] (Eterna round: R96, puzzle: Same State NG 3)", "true"],
  ["GGUCGGACUCACAUGAGGAUCACCCAUGUUCCGGAAACGGGACAGGAUAUCUGUCCGAAAAGGUCAGAGAAGGGUCUACCGACC [Fiskers NG3ss - 54] (Eterna round: R96, puzzle: Same State NG 3)", "true"]
]}

###

- System: MS2 coat protein
- assay-comment: apparent KD of MS2 coat protein; designed switch direction (-1 OFF switch, 1 ON switch): -1; higher = weaker reporter binding
- cond: input ligand: FMN 200 uM
quantity-kind: apparent KD of MS2 coat protein (nM)

{"columns": ["residue-string", "output-unit", "measured-value"],
 "data": [
  ["GCAUGCUCCGAGGAUAUCGAAGCUAAUUAUGCACGAGAAGGCGGAACAUGAGGAUCACCCAUGUGAUGCCAAUG [Qutequen] (Eterna round: R97, puzzle: Exclusion 6)", "nM", 51.9],
  ["GUAGUGACUCGAGGAUAUCCCGACUCCUGGUCAGGAGAAGGCGACGUCAUAGCACAUGAGGAUCACCCAUGUCUUACACAUACG [Eternabot solution 32] (Eterna round: R96, puzzle: Exclusion NG 1)", "nM", 25.6],
  ["AGUUCACAUGAGGAUCACCCAUGUGAGGAUAUGGUUUCGCUGGCCGUAGCCAGUGGAACCAGAAGGCGCAUGAU [Mat - Exclusion 1 - JL Mod - D14] (Eterna round: R97, puzzle: Exclusion 1)", "nM", 38.6],
  ["CGUCAGUGAGGAUAUGGUAUCGUUUACAUGAGGAUCACCCAUGUUUCAUGGGACUAGAGACUAGAAGGUACUGACG [EX5 #43] (Eterna round: R97, puzzle: Exclusion 5)", "nM", 408],
  ["CAGCUGUGAGGAUAUACAUGAGGAUCACCCAUGUUAAGGAAGUGGUGUAUAUUGUAGUGUAGAAGGCACUUGUC [JR_Ex3_Sub026] (Eterna round: R97, puzzle: Exclusion 3)", "nM", 234],
  ["GCAAGCUUAAUCAGUAUGAACAUGAGGAUCACCCAUGUAUAAGGUAAUACUUUUGGGCCCUUUAUUACUCGUCUUAU [JR_STOV1_Sub029] (Eterna round: R97, puzzle: Sensor, turn-off variant 1)", "nM", 67.4],
  ["AAUUCACAUGAGGAUCACCCAUGUGAGGAUAUGGUUUCGCUGGCCGUAGCCAGUGGAACCAGAAGGCGCAUGAU [Mat - Exclusion 1 - JL Mod - D11] (Eterna round: R97, puzzle: Exclusion 1)", "nM", 30.7],
  ["UAUAACCAAGGAUAUACAUGAGGAUCACCCAUGUAAUAUAAAAUAAAAUAAAUAAAAUGUAGAAGGUGGGAUAU (Eterna round: R97, puzzle: Exclusion 3)", "nM", 40.8],
  ["GUCAGCUCGUGAGGAUAUACAUGAGGAUCACCCAUGUGAUCAAUAGCAGCUUCGGCUGCAAUAAUGUAGAAGGCACGAGCUGAC [ENG2/8-C] (Eterna round: R96, puzzle: Exclusion NG 2)", "nM", 60.5],
  ["ACUGGUGCAGGAUAUACAUUCGUGCUUCGGCACGUAAGAUCACAUGAGGAUCACCCAUGUAGAAGGGCACCAGU [E2/5-D2] (Eterna round: R97, puzzle: Exclusion 2)", "nM", 642]
]}
